experiment: yeast display, Sf9 membrane polyspecificity reagent, FACS + sequencing; frameworks hold sequencing errors

querySequence: QVQLVESGGALDQAGGSLRVSCAASGSIFPIYTMGWYRQAPGKERELVAGIRYRGGNTYYADSVKGRFTISRDNAKNTVYLQMNSLNPEDTAVYYCAARAYYRYLYKLNYWGQGTQVTVSS
polyreactivity (PSR sort gate): high polyreactivity
--
querySequence: QVQLVESGGGLVQAGGSLRLSCAASGSTSYVYAMGWYRQAPGKERELVAAISNTGNTNYADSVKGRFTISRDNAKNTVYLQMNSLKPEDTAVYYCNADRRGENDWHERDYWGQGTQVTVSS
polyreactivity (PSR sort gate): low polyreactivity
--
querySequence: QVQLVESGGVLVQAGGSLRLICAASGSIFNRYAMGWYRHAPGKDRELVAAISRSGGRTYYADSVKGRFTISRDNAKNTVYLQMNSLKPEDTAVYYCAADKYYRQHEYDYWGQGTQVTVSS
polyreactivity (PSR sort gate): high polyreactivity
--
querySequence: QVQLVESGGGLVQAGGSLRLSCAASGFQYGMGWYRQAPGKERELVAAISRDGSTNYADSVKGRFTISRDNAKNTVYLQMNSLKPEDTAVYYCAVDFYFLYGWGQGTQVTVSS
polyreactivity (PSR sort gate): low polyreactivity
--
querySequence: QVQLVESGGGLVQAGGSLRLSCAASGLIFPVYTLGWYRPAPGKERELVAAITSSGDSTYYADSVKGRFTISRDNAKNTVYVQMNSLKPEDTAVYYCAARLVEKYGGTYSFDYWGQGTQVTVSS
polyreactivity (PSR sort gate): low polyreactivity

* * *

assay: yeast display, Sf9 membrane polyspecificity reagent, FACS + sequencing; frameworks hold sequencing errors
endpointName: polyreactivity (PSR sort gate)

querySequence: QVQREESGGGLVQAGGSLRLSCAASGITFVLNVMGWYRQAPGKETELLAAISASGGRTYYADSVKGRFTISRDNAKNTVYLQMNSLKPEDTAVYYCNAVLPRYTFRSGVFEYDWGQGTQVTVSS
endpointName: polyreactivity (PSR sort gate)
reading: high polyreactivity

querySequence: QVQLVESGGGLVQAGGSLRLSCAASGRTFRTNAMGWYRQAPGKERELVAAITSDGTYYADSVKGRFTISRDNAKKTVYLQMNSLKPEDTAVYYCNVDDRETRDDYWGQGTQVTVSS
endpointName: polyreactivity (PSR sort gate)
reading: low polyreactivity

querySequence: QVQLVDSVGGLVQAGGSLRLSCAASGFTFGVNVMGWYRQEPGKEREFVAAITWSGDSTYYADSVKGRFTISRDNAKNTVYLQMNSLKPEDSAVYYCAADGNTWPADFLSYYFEFDEYWGQGTQVTVSS
endpointName: polyreactivity (PSR sort gate)
reading: low polyreactivity

querySequence: QDQLVESGGGLVQAGGSLRLSCAASGRTFRRYAMGWYRQAPGKERELVAAISASGGSTYYADSVKGRFTISRDNAKNTVYLQMNSLKPEDTAVYYCYALHRAGLFGHYPYESWGQGTQVTVSS
endpointName: polyreactivity (PSR sort gate)
reading: high polyreactivity

querySequence: QVQLVESGGGLVQAGGSLRLSCAASGSTFDYYAMGWYRQAPGKERELVAAISRTGGRTYYADSVKGRFTISRDNEKNSVYLQMHSLKPEESAVYYCNSVTRIGGGDYDYWGQGTQVTVSS
endpointName: polyreactivity (PSR sort gate)
reading: low polyreactivity
